Ref: patent US20240182547A1

pKd reference
subject_of_test: DS-Cav1 (RSV F-protein, pre-form, in-house) (respiratory syncytial virus (RSV), UniProt P03420 26-513)
Sequence (P03420 26-524): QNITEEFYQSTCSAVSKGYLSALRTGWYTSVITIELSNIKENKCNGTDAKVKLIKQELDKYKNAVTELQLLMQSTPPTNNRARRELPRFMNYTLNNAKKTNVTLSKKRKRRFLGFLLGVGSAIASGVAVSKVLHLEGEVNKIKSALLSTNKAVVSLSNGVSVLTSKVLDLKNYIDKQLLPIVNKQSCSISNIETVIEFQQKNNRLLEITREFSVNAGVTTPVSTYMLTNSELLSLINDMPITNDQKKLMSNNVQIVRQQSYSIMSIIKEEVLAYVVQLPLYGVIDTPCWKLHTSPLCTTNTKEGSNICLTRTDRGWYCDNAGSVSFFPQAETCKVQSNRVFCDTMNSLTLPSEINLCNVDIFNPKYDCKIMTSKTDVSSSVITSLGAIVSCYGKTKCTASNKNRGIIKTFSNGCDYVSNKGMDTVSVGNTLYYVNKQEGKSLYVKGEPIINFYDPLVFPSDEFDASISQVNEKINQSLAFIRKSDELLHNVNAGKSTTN
assay: ELISA, coated DS-Cav1, IgG titrated
pKd: −log10 of the molar value.

binder: #51m (antibody, V domains shown, Germline-edited (m) form of 3E7, heavy chain edited; IgG; also called 3E7 (modified)) VH: EVQLVQSGAEVKKPGASVKVSCKASGYTFTDYGLSWVRQAPGHGLEWMGWITAYNGDTNYAQKFQDRLSVTTDISTSTAYMELRSLKSDDTAVYYCARHVFCSGDGCYSGLGSWGQGTLVTVSS VL: QSVLTQPPSASGAPGQRVIISCSGSSSNVGSNTVNWYQQLPGTAPKLLIYDKNERPSGVPDRFSASKSGTSSSLAIGGLRSEDEADYYCGTWDDNLNGWVFGGGTKLTVLG
pKd: ~8.90
//
binder: 4H7 (antibody, V domains shown, IgG made in Expi293; also called #49; 49) VH: QVQLVQSGAEVKKPGASVKVSCKASGYTFTDYGLSWVRQAPGHGLEWMGWITAYNGDTNYAQKFQDRLSVTTDISTSTAYMELRSLKSDDTAVYYCARHVFCSGDGCYSGLGSWGQGTLVTVSS VL: SYELTQPPSASGAPGQRVIISCSGSSSNVGSNTVNWYQQLPGTAPKLLIYDKNERPSGVPDRFSASKSGTSSSLAIGGLRSEDEADYYCATWDDNLNGWVFGGGTKLTVLG
pKd: ~8.67
//
binder: 4F11 (antibody, V domains shown, IgG made in Expi293; also called #12; 12) VH: EVQLVESGGGLVKPGGSLRLSCAGSGFAFSSYTMHWVRQAPGKGLEWVSSITGGSSYLDYAHSVKGRFTISRDNGQNSLFLQMNSLRTEDTAVYYCARDDYGSGSYSNYFDPWGQGTLVTVSS VL: QPVLTQPPSVSGAPGQRVTISCTGSSSNIGAGYDVHWYQQVPGTAPKLLIFGSTNRPSGVPDRFSGSKSGASASLAITGLQTEDEADYYCQSYDRSLSHVFGTGTKVTVLG
pKd: ~9.37
//
binder: 2H8 (antibody, V domains shown, IgG made in Expi293; also called #26; 26) VH: EVQLVESGGGLAKPGGSLRLSCAASGFTFTSYRMHWVRQAPGKGLEWVSSITGGGNYIEYADSVKGRFTISRDNAKNSLDLQMNSLRAEDTAIYYCARDMYGLGSYYSPNYFDPWGQGTLVTVSS VL: QSVLTQPPSVSGAPGQRVTISCTGSSSNIGAGYDVHWYQQLPGAAPRLLMFGNSNRPSGVPDRFSGSKSGTSASLAITGLQAEDEADYYCQSYDRSLSHVFGTGTKVTVLG
pKd: ~9.38
//
binder: 4E1 (antibody, V domains shown, IgG made in Expi293; also called #17; 17) VH: EVQLVESGGGLVQPGGSLRLACAASGFTFSSYTMHWVRQAPGKGLEWVSSITGGSSYVDYSASVKGRFTISRDNAQSSLYLQMNSLRAEDTAVYYCARDDYGSGSYSNWFDPWGQGTLVTVSS VL: SYELTQPPSVSGAPGQRVTISCTGSSSNIGAGYDVHWYQQLPGRAPKLLIFANTNRPSGVPDRFSGSKSGASASLAITGLQAEDEADYYCQSYDRSLSHVFGTGTKVTVLG
pKd: ~9.25
